test system: NCI-H226 lung; test: NCI-60 one-dose screen, 48 h (100 = growth as untreated, 0 = no growth, -100 = all killed); conditions: 10 µM unless noted
Compounds without any hit were thinned out: in the full panel of roughly 83,000, 20% have a hit.
Give measured growth for each item. Keep answers brief.
Give bare numbers, in %.

Known growth results, listed for orientation:
> print(dat)
                                   compound  recorded.result
1  COc1ccc(C2SCC(=O)Nc3c2c(C)nn3-c2nc3ccc(C)cc3s2)cc1O (stereo not given)             67.6
2  ClCCN(CCCl)c1nc(Cl)c(C2CC(c3ccc(Cl)cc3)=NN2c2cc(Cl)cc(Cl)c2)s1 (stereo not given)             99.9
3  CC1(C)N=C(N)N=C(N)N1c1ccc(CCCCc2ccc(S(=O)(=O)F)cc2)cc1             36.8
4                    c1cnc2c(c1)ccc1ncccc12              100

Now take the following compound into account.
Prompt line: What value of measured growth is listed for CC12CCC3C(CC=C4CC(O)CCC43C)C1C/C(=C\N1CCOCC1)C2=O (stereo not given) ?
Response line: 93.2
